Reference source: BindingDB's records for doi:10.1021/jm00371a008

Target: Folylpolyglutamate synthase (Mus musculus)
Assay: Compound was evaluated for the binding affinity to mouse liver folyl polyglutamate synthetase.
readout.name: pKi
Answer as the number alone; pKi is minus log10 of concentration in mol/L.

// below: answered molecules
CN(Cc1cnc2nc(N)nc(N)c2n1)c1ccc(C(=O)NC(CS(=O)(=O)O)C(=O)O)cc1 (centres undefined) : 3.87
Nc1nc(N)c2nc(CNc3ccc(C(=O)NC(CCS(=O)(=O)O)C(=O)O)cc3)cnc2n1 (centres undefined) : 4.23
CN(Cc1cnc2nc(N)nc(N)c2n1)c1ccc(C(=O)NC(CCS(=O)(=O)O)C(=O)O)cc1 (centres undefined) : 3.70

Then this molecule:
pKi for Nc1nc(N)c2nc(CNc3ccc(C(=O)NC(CS(=O)(=O)O)C(=O)O)cc3)cnc2n1 (centres undefined) ?
4.37
